# EXPERIMENT DESCRIPTION: MRT (0 to infinity) in Sprague-Dawley rat at 1 mg/kg, iv
# Assay type: ADME, organism-based
# CONDITION CONTEXT: in vivo
PROPERTY NAME: MRT inf (min)

>>> print(df.to_string())
                    structure_smiles_string  property_name  reported_value
0  O=C(NCc1cn(CCNc2nonc2/C(=N/O)NCc2cccc(Br)c2)nn1)c1ccccn1        MRT inf              33

---

Catalogue of compounds with associated inhibition
# EXPERIMENTAL SYSTEM: Indoleamine 2,3-dioxygenase 2 (Homo sapiens)
# EXPERIMENT DESCRIPTION: Inhibition of recombinant human IDO2 in HeLa cells at 100 nM relative to control
# Assay type: cell-based
PROPERTY NAME: inhibition (%)

                    structure_smiles_string  property_name  measurement_units  reported_value
0  O=C(NCc1cn(CCNc2nonc2/C(=N/O)Nc2ccc(F)c(Br)c2)nn1)c1ccc[nH]1     inhibition                  %              51
1  O=C(NCc1cn(CCNc2nonc2/C(=N/O)Nc2cccc(Br)c2)nn1)c1ccccn1     inhibition                  %              16
2  O=C(NCc1cn(CCNc2nonc2/C(=N/O)NCc2cccc(Br)c2)nn1)c1ccc[nH]1     inhibition                  %              24
3  O=C(NCc1cn(CCNc2nonc2/C(=N/O)Nc2ccc(F)c(Cl)c2)nn1)c1ccccn1     inhibition                  %              16
4  O=C(NCc1cn(CCNc2nonc2/C(=N/O)Nc2ccc(F)cc2)nn1)c1ccccn1     inhibition                  %               5

---

# Tested on: Mus musculus
# EXPERIMENT DESCRIPTION: Antiinflammatory activity against xylene-induced ear swelling ICR mouse model assessed as swelling rate at 100 mg/kg, IG measured after 1 hr (Activity = 58.21 +/- 12.79%)
# Assay type: functional
Catalogue of molecules with associated Activity
PROPERTY NAME: Activity (%)

In [3]: df
Out[3]:
                    structure_smiles_string  experimental_system  property_name  reported_value
0          COc1ccc2cc([C@H](C)C(=O)O)ccc2c1         Mus musculus       Activity           31.85
1  O=C(NCc1cn(CCNc2nonc2/C(=N/O)NCc2cccc(Br)c2)nn1)c1ccccn1         Mus musculus       Activity           20.19
2  O=C(NCc1cn(CCNc2nonc2/C(=N/O)Nc2ccc(F)c(Br)c2)nn1)c1ccccn1         Mus musculus       Activity           36.71
3  O=C(NCc1cn(CCNc2nonc2/C(=N/O)Nc2ccc(F)c(Br)c2)nn1)c1ccc[nH]1         Mus musculus       Activity           27.84

---

# EXPERIMENT DESCRIPTION: Tmax in Sprague-Dawley rat at 10 mg/kg, po
# Assay type: ADME, organism-based
# CONDITION CONTEXT: in vivo
PROPERTY NAME: Tmax (min)

                    structure_smiles_string  reported_value
0  O=C(NCc1cn(CCNc2nonc2/C(=N/O)NCc2cccc(Br)c2)nn1)c1ccccn1              45
